Where do the numbers come from? From ChEMBL document CHEMBL5360622.

# Lookup of reported pIC50 keyed by entry
- targetDesc: Dual specificity tyrosine-phosphorylation-regulated kinase 3 (Homo sapiens, UniProt O43781)
- Sequence (O43781 whole entry): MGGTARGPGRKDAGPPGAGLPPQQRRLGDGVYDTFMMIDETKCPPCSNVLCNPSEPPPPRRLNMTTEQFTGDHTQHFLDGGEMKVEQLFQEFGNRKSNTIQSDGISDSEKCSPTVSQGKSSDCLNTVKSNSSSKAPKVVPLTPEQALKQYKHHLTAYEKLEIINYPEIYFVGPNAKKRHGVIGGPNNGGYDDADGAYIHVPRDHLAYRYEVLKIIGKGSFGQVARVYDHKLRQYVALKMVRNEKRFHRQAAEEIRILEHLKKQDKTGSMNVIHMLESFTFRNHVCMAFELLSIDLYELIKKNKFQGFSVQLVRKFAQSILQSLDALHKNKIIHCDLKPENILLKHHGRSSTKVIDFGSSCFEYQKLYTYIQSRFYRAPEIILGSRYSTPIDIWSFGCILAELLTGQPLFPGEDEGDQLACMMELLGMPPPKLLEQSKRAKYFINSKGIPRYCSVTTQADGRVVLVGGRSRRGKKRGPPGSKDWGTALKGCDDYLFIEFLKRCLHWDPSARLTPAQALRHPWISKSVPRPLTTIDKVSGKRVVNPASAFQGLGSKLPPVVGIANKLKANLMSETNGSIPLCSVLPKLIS
Here pIC50 is given on a logarithmic scale as minus log10 of the concentration in mol/L.

> print(dat)
                                   molecule  valuemeasured
1  CC(C)C[C@H](CO)NC1=N/C(=C\c2ccc3ncsc3c2)C(=O)N1           6.40

[ask] Identify measured pIC50 corresponding to CC1(C)CCC(NC2=N/C(=C\c3ccc4ncsc4c3)C(=O)N2)CO1 (racemic)
[reply] 6.16

[ask] Identify measured pIC50 corresponding to Cc1csc(CNC2=N/C(=C\c3ccc4ncsc4c3)C(=O)N2)n1
[reply] 5.74

[ask] Identify measured pIC50 corresponding to CC1(C)CNC(=O)C1NC1=N/C(=C\c2ccc3ncsc3c2)C(=O)N1 (racemic)
[reply] 5.70

====

List of IC50 tested on Dual specificity protein kinase CLK1 (Homo sapiens).
Sequence (P49759 whole entry): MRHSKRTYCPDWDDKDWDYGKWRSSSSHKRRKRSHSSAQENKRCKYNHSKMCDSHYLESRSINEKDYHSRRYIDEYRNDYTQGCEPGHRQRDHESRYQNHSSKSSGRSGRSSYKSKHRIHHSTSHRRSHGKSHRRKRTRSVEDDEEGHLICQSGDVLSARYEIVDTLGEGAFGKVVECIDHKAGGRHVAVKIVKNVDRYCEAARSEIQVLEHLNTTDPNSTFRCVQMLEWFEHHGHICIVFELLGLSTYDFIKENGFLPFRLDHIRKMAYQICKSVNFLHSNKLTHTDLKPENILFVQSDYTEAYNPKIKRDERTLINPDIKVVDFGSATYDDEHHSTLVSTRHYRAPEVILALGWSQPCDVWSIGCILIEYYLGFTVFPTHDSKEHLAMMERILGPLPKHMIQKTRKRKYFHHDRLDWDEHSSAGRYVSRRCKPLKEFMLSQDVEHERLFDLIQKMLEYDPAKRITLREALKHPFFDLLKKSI

In the examples that follow, each entry is paired with its recorded IC50.
> print(dat)
                                   molecule  assayendpoint  valuemeasured
1  O=C1NC(NC2CCCCC2)=N/C1=C\c1ccc2[nH]ncc2c1           IC50         541 nM
2  O=C1NC(NC2CCCCCC2)=N/C1=C\c1ccc2[nH]cnc2c1           IC50          31 nM
3  Cn1cnc2cc(/C=C3\N=C(NC4CCCCCC4)NC3=O)ccc21           IC50     > 10000 nM
4  CN1CC[C@@](C)(NC2=N/C(=C\c3ccc4ncsc4c3)C(=O)N2)C1=O (stereo in doubt)           IC50          11 nM

Let us move to another entry and its IC50.
[ask] // fetch IC50; item: O=C1NC(NC[C@H](O)c2ccccc2)=N/C1=C\c1ccc2ncsc2c1 ; system: Dual specificity protein kinase CLK1 (Homo sapiens)
[reply] 12 nM

====

# Lookup of reported pIC50 keyed by entry
- targetDesc: Dual specificity tyrosine-phosphorylation-regulated kinase 3 (Homo sapiens, UniProt O43781)
Here pIC50 is given on a logarithmic scale as minus log10 of the concentration in mol/L.

In the examples that follow, each entry is paired with its recorded pIC50.
> print(dat)
                                   molecule  assayendpoint  valuemeasured
1  C[C@@H]1CCCC[C@H]1NC1=N/C(=C\c2ccc3ncsc3c2)C(=O)N1 (racemic)          pIC50           6.27
2  CC1(NC2=N/C(=C\c3ccc4ncsc4c3)C(=O)N2)CCNC1=O (racemic)          pIC50           6.23

[ask] Identify measured pIC50 corresponding to O=C1NC(N[C@@H]2CCCC[C@H](O)C2)=N/C1=C\c1ccc2ncsc2c1 (racemic)
[reply] 6.12

====

- targetDesc: Dual specificity tyrosine-phosphorylation-regulated kinase 4 (Homo sapiens, UniProt Q9NR20)
- Sequence (Q9NR20 whole entry): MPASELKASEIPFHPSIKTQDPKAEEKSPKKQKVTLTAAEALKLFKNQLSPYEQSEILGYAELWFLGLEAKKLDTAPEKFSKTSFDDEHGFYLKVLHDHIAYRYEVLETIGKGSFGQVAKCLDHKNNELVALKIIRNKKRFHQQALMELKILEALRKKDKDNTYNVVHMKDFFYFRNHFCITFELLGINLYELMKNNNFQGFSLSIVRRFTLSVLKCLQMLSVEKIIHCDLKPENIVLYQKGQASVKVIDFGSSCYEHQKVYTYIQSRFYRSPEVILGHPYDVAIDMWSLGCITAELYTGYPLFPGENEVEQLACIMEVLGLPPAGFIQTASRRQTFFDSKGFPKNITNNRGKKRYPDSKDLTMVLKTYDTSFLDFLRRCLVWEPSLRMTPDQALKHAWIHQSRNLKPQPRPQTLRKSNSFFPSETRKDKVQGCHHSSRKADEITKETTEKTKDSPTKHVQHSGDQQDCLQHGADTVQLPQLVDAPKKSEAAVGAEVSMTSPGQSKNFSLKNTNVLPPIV
assayEndpoint: pIC50
Here pIC50 is given on a logarithmic scale as minus log10 of the concentration in mol/L.

In the examples that follow, each entry is paired with its recorded pIC50.
> print(dat)
                                   molecule  valuemeasured
1  O=C1NC(N[C@@H]2CCCOC2)=N/C1=C\c1ccc2ncsc2c1           5.73
2  C[C@@H]1CCCC[C@H]1NC1=N/C(=C\c2ccc3ncsc3c2)C(=O)N1 (racemic)           6.27
3  CC1(C)CCC(NC2=N/C(=C\c3ccc4ncsc4c3)C(=O)N2)CO1 (racemic)           6.24

Let us move to another entry and its pIC50.
[ask] Identify measured pIC50 corresponding to O=C1NC(N[C@@H]2c3ccccc3C[C@H]2O)=N/C1=C\c1ccc2ncsc2c1
[reply] 6.74

====

- targetDesc: Dual specificity protein kinase CLK4 (Homo sapiens, UniProt Q9HAZ1)
- Sequence (Q9HAZ1 whole entry): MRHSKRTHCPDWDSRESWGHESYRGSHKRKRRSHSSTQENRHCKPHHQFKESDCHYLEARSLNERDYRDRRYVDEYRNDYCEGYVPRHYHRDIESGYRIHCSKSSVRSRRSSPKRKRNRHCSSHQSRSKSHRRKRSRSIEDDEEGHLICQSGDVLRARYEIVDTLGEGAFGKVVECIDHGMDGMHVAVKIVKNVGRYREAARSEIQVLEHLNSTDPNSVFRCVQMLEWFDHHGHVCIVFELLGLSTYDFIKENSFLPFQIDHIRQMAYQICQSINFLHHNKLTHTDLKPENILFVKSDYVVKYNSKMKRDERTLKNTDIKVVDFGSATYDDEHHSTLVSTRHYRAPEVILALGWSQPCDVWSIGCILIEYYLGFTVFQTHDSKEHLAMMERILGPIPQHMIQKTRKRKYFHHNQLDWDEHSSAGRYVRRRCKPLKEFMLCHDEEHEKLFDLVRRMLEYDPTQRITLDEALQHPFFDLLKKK
Mark each entry satisfied if its IC50 sits below 30 nM, and not satisfied for all others.

Answered cases to consult:
> print(dat)
                                   compound                                targetdesc          class
1  Cn1ccc2cc(/C=C3\N=C(NC4CCCCC4)NC3=O)ccc21  Dual specificity protein kinase CLK4 (Homo sapiens, UniProt Q9HAZ1)  not satisfied
2  O=C1NC(NC2CCNC2=O)=N/C1=C\c1ccc2ncsc2c1 (racemic)  Dual specificity protein kinase CLK4 (Homo sapiens, UniProt Q9HAZ1)  not satisfied
3  Cc1nc2ccc(/C=C3\N=C(NC4CCCCC4)NC3=O)cc2s1  Dual specificity protein kinase CLK4 (Homo sapiens, UniProt Q9HAZ1)  not satisfied
4  CC(=O)N1CCc2ccc(NC3=N/C(=C\c4ccc5ncsc5c4)C(=O)N3)cc21  Dual specificity protein kinase CLK4 (Homo sapiens, UniProt Q9HAZ1)      satisfied

[ask] Confirm or reject: IC50 of CN1CCC(NC2=N/C(=C\c3ccc4ncsc4c3)C(=O)N2)CC1 lies strictly below 30 nM
[reply] not satisfied

[ask] Confirm or reject: IC50 of CC(C)[C@@H]1CC[C@@H](C)C[C@H]1NC1=N/C(=C\c2ccc3ncsc3c2)C(=O)N1 lies strictly below 30 nM
[reply] not satisfied

[ask] Confirm or reject: IC50 of Cn1cnc2cc(/C=C3\N=C(NC45CC6CC(CC(C6)C4)C5)NC3=O)ccc21 lies strictly below 30 nM
[reply] not satisfied

[ask] Confirm or reject: IC50 of O=C1NC(NCCCn2ccnc2)=N/C1=C\c1ccc2ncsc2c1 lies strictly below 30 nM
[reply] satisfied

[ask] Confirm or reject: IC50 of COC(=O)[C@H](C)NC1=N/C(=C\c2ccc3ncsc3c2)C(=O)N1 lies strictly below 30 nM
[reply] satisfied

[ask] Confirm or reject: IC50 of O=C1NC(Nc2ccccc2)=N/C1=C\c1ccc2c(c1)OCO2 lies strictly below 30 nM
[reply] satisfied

[ask] Confirm or reject: IC50 of CC(C)C[C@H](COCc1ccccc1)NC1=N/C(=C\c2ccc3ncsc3c2)C(=O)N1 lies strictly below 30 nM
[reply] not satisfied

[ask] Confirm or reject: IC50 of CO[C@@H]1Cc2ccccc2[C@H]1NC1=N/C(=C\c2ccc3ncsc3c2)C(=O)N1 (racemic) lies strictly below 30 nM
[reply] satisfied

[ask] Confirm or reject: IC50 of CO[C@H]1CC[C@H](NC2=N/C(=C\c3ccc4ncsc4c3)C(=O)N2)CC1 lies strictly below 30 nM
[reply] satisfied

[ask] Confirm or reject: IC50 of CC(C)(C)C(=O)OC12CC3CC(CC(NC4=N/C(=C\c5ccc6ncsc6c5)C(=O)N4)(C3)C1)C2 lies strictly below 30 nM
[reply] not satisfied

[ask] Confirm or reject: IC50 of Cc1ccc(NC2=N/C(=C\c3ccc4ncsc4c3)C(=O)N2)cc1F lies strictly below 30 nM
[reply] not satisfied

[ask] Confirm or reject: IC50 of O=C1NC(NC2CCCCC2)=N/C1=C\c1ccc2[nH]ccc2c1 lies strictly below 30 nM
[reply] not satisfied

[ask] Confirm or reject: IC50 of O=C1NC(Nc2ccc(N3CCOCC3)cc2)=N/C1=C\c1ccc2ncsc2c1 lies strictly below 30 nM
[reply] not satisfied

[ask] Confirm or reject: IC50 of O=C1NC(NC2CCCCCC2)=N/C1=C\c1ccc2c(c1)CCO2 lies strictly below 30 nM
[reply] satisfied

[ask] Confirm or reject: IC50 of O=C1NC(NC23CC4CC(CC(C4)C2)C3)=N/C1=C\c1ccc2c(c1)CCO2 lies strictly below 30 nM
[reply] not satisfied

[ask] Confirm or reject: IC50 of O=C1NC(Nc2ncccn2)=N/C1=C\c1ccc2ncsc2c1 lies strictly below 30 nM
[reply] not satisfied

[ask] Confirm or reject: IC50 of O=C1NC(NC2CCCCC2)=N/C1=C\c1ccc2nnsc2c1 lies strictly below 30 nM
[reply] not satisfied
